Species on record: Rattus norvegicus
Assay: Antidiuretic activity in rats and pA2 value is negative logarithm of effective dose (ED)
Type: functional, organism-based
Conditions: Urine, read-out: pA2 (converted)
*1 amine or outer side, *2 acyl side, *3 side chain or, on linkers, in order; H or OH if unused. Where a SMILES comes first, the peptide text is derived from it. Bridges are numbered along the chain shown (N, C = ends). [ ]: non-standard residue; d: D form. X1 = O=C(CC1(S[*:2])CCCCC1)[*:1]; Orn = NCCC[C@H](N)C(=O)O
VALUE_TYPE: Kb (nM)

# COMPOUND, VALUE_TYPE, TEST_VALUE
data = [
    ("CC[C@@H](C)[C@H]1NC(=O)CC2(CCCCC2)SSC[C@@H](C(=O)N2CCC[C@H]2C(=O)N[C@@H](CCCN=C(N)N)C(=O)NCC(N)=O)NC(=O)[C@H](CC(N)=O)NC(=O)[C@H](CCCCN)NC(=O)[C@H](Cc2ccccc2)NC1=O", "Kb", 174),
    ("CC[C@@H](C)[C@H]1NC(=O)CC2(CCCCC2)SSC[C@@H](C(=O)N2CCC[C@H]2C(=O)N[C@@H](CCCN=C(N)N)C(=O)NCC(N)=O)NC(=O)[C@H](CC(N)=O)NC(=O)[C@H]([C@@H](C)CC)NC(=O)[C@H](Cc2ccccc2)NC1=O", "Kb", 9.12),
    ("CC[C@@H](C)[C@H]1NC(=O)CC2(CCCCC2)SSC[C@@H](C(=O)N2CCC[C@H]2C(=O)N[C@@H](CCCN=C(N)N)C(=O)NCC(N)=O)NC(=O)[C@H](CC(N)=O)NC(=O)[C@H](CO)NC(=O)[C@H](Cc2ccccc2)NC1=O", "Kb", 55),
    ("CC[C@@H]1NC(=O)[C@H](Cc2ccccc2)NC(=O)[C@@H]([C@H](C)CC)NC(=O)CC2(CCCCC2)SSC[C@@H](C(=O)N2CCC[C@H]2C(=O)N[C@@H](CCCN=C(N)N)C(=O)NCC(N)=O)NC(=O)[C@H](CC(N)=O)NC1=O", "Kb", 6.03),
    ("CC[C@@H](C)[C@H]1NC(=O)CC2(CCCCC2)SSC[C@@H](C(=O)N2CCC[C@H]2C(=O)N[C@@H](CCCN=C(N)N)C(=O)NCC(N)=O)NC(=O)[C@H](CC(N)=O)NC(=O)[C@H](CC(C)C)NC(=O)[C@H](Cc2ccccc2)NC1=O", "Kb", 158),
    ("CC[C@@H](C)[C@H]1NC(=O)CC2(CCCCC2)SSC[C@@H](C(=O)N2CCC[C@H]2C(=O)N[C@@H](CCCN=C(N)N)C(=O)NCC(N)=O)NC(=O)[C@H](CC(N)=O)NC(=O)[C@H](CCCN)NC(=O)[C@H](Cc2ccccc2)NC1=O", "Kb", 347),
    ("CC[C@@H](C)[C@H]1NC(=O)CC2(CCCCC2)SSC[C@@H](C(=O)N2CCC[C@H]2C(=O)N[C@@H](CCCN=C(N)N)C(=O)NCC(N)=O)NC(=O)[C@H](CC(N)=O)NC(=O)[C@H](CC(N)=O)NC(=O)[C@H](Cc2ccccc2)NC1=O", "Kb", 309),
    ("NC(=O)CNC(=O)[C@H](CCCN=C(N)N)NC(=O)[C@@H]1CCCN1C(=O)[C@@H]1CSSC2(CCCCC2)CC(=O)N[C@H](Cc2ccccc2)C(=O)N[C@@H](Cc2ccccc2)C(=O)N[C@@H](CO)C(=O)N[C@@H](CC(N)=O)C(=O)N1", "Kb", 46.8),
    ("NCCC[C@@H]1NC(=O)[C@H](Cc2ccccc2)NC(=O)[C@@H](Cc2ccccc2)NC(=O)CC2(CCCCC2)SSC[C@@H](C(=O)N2CCC[C@H]2C(=O)N[C@@H](CCCN=C(N)N)C(=O)NCC(N)=O)NC(=O)[C@H](CC(N)=O)NC1=O ([dF]F[Orn]NCPRG-NH2; linker N-5 via X1)", "Kb", 316),
]
